Reference source for all entries: the supplement of paper PMC8728848

# subject-of-test: Neu5Ac(a2-3)Gal(b1-4)GlcNAc(b1-6)[Gal(b1-3)]GalNAc
# measurement-description: glycan array binding signal (z-score within array); higher = stronger binding
# reported-conditions: glycan notation: IUPAC condensed, linker removed
Many of the other results were omitted from the sample, so the strongest signals are more common in it than they were.
quantity-name: glycan array binding signal (z-score)
# respond with the number and nothing more

* ACA (Amaranthus caudatus) (protein) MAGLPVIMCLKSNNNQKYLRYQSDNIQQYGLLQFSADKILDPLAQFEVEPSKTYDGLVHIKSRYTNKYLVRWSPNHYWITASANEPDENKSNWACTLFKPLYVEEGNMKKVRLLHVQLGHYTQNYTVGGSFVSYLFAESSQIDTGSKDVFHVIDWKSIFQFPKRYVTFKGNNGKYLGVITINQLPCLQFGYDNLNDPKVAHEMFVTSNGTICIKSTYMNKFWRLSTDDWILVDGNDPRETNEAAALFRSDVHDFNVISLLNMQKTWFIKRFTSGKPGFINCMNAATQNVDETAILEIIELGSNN | 0.029

### Prompt Fill in: glycan array binding signal (z-score) of EUL D1A first (Oryza sativa) (protein) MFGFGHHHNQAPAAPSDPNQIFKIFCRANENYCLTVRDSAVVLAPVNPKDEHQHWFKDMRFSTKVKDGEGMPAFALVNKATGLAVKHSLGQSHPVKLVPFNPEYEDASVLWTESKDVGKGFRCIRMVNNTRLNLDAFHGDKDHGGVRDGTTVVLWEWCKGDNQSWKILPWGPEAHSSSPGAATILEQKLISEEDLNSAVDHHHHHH is ___
### Response 0.081
